- ASSAYED_SYSTEM: BRD4 (BDII_E352-M457) (Homo sapiens, UniProt O60885)
- Construct: protocol
- ASSAY_COMMENT: TR-FRET bromodomain binding assay, BRD4 second bromodomain
pKi: −log10 of the molar value.
ASSAY_METRIC: pKi

These recorded examples may help you get a feel for the data.
molecule="Cn1cc2c3c(c[nH]c(=O)c31)C(c1ccccc1)Nc1ccc(CS(C)(=O)=O)cc1-2 (stereo not shown) [Example 25]" quantitative_readout=6.91
molecule="CCS(=O)(=O)Nc1cnc2c(c1)-c1cn(C)c3c(=O)[nH]cc(c13)CN2c1ccc(F)cc1F [Example 68]" quantitative_readout=8.75
molecule="Cn1cc2c3c(c[nH]c(=O)c31)CN(c1ccc(F)cc1)c1ccc(N)cc1-2 [Example 23]" quantitative_readout=8.12
molecule="CC(=O)Nc1ccc(S(=O)(=O)Nc2ccc3c(c2)-c2cn(C)c4c(=O)[nH]cc(c24)CN3c2ccc(F)cc2)cc1 [Example 27]" quantitative_readout=8.76
molecule="Cn1cc2c3c(c[nH]c(=O)c31)CN(c1ccc(F)cc1)c1ccc(C(=O)NCc3cc(F)ccc3Br)cc1-2 [Example 58]" quantitative_readout=7.90

a = Cn1cc2c3c(c[nH]c(=O)c31)CN(c1ccc(F)cc1)c1ncc(F)cc1-2 [Example 16]
b = COc1ccc(F)cc1CC(=O)Nc1ccc2c(c1)-c1cn(C)c3c(=O)[nH]cc(c13)CN2c1ccc(F)cc1 [Example 65]
For the pair a and b , which member has the lower pKi number? // output: label of the selected item
b
(b: 7.35, a: 8.29)

====

- ASSAYED_SYSTEM: BRD4 (BDI_K57-E168) (Homo sapiens)
- Construct: BD1: amino acids K57-E168; made in house
- ASSAY_COMMENT: TR-FRET bromodomain binding assay, BRD4 first bromodomain
- TEST_CONDITIONS: His-tagged BD1, 100 nM Alexa647 probe; assay protocol D or F as given per row in c1; Ki calculated from IC50
pKi: −log10 of the molar value.
ASSAY_METRIC: pKi

molecule="COc1ccc(F)cc1CNC(=O)c1ccc2c(c1)-c1cn(C)c3c(=O)[nH]cc(c13)CN2c1ccc(F)cc1 [Example 56]" assay_metric=pKi quantitative_readout=8.76
molecule="Cc1cccc(CNc2ccc3c(c2)-c2cn(C)c4c(=O)[nH]cc(c24)CN3c2ccc(F)cc2)n1 [Example 40]" assay_metric=pKi quantitative_readout=9.07
molecule="Cn1cc2c3c(c[nH]c(=O)c31)CN(c1ccc(F)cc1)c1ccc(NC(=O)Cc3cc(F)ccc3F)cc1-2 [Example 52]" assay_metric=pKi quantitative_readout=8.56
molecule="CCS(=O)(=O)Nc1cnc2c(c1)-c1cn(C)c3c(=O)[nH]cc(c13)CN2c1ccc(F)cc1F [Example 68]" assay_metric=pKi quantitative_readout=8.90
molecule="Cn1cc2c3c(c[nH]c(=O)c31)CN(c1ccc(F)cc1)c1ccc(C(=O)NCc3cc(F)ccc3Br)cc1-2 [Example 58]" assay_metric=pKi quantitative_readout=8.74
molecule="Cc1cccnc1CNc1ccc2c(c1)-c1cn(C)c3c(=O)[nH]cc(c13)CN2c1ccc(F)cc1 [Example 43]" assay_metric=pKi quantitative_readout=8.90

1 = COc1cccc(NC(=O)Nc2ccc3c(c2)-c2cn(C)c4c(=O)[nH]cc(c24)CN3c2ccc(F)cc2)c1 [Example 45]
2 = Cn1cc2c3c(c[nH]c(=O)c31)C(c1ccccc1)Nc1ccc(CS(C)(=O)=O)cc1-2 (centres unmarked) [Example 25]
3 = Cn1cc2c3c(c[nH]c(=O)c31)CN(c1ccc(F)cc1)c1ncc(F)cc1-2 [Example 16]
rank_up(items): orders items by reported pKi in ascending numerical order. Give the labels in the order specified.
2, 1, 3
(2: 6.72, 1: 8.15, 3: 9.10)

====

- ASSAYED_SYSTEM: BRD4 (BDI_K57-E168) (Homo sapiens)
- Construct: BD1: amino acids K57-E168
- ASSAY_COMMENT: TR-FRET bromodomain binding assay, BRD4 first bromodomain
- TEST_CONDITIONS: His-tagged BD1, 100 nM Alexa647 probe; assay protocol D or F as given per row in c1; Ki calculated from IC50
ASSAY_METRIC: Ki (nM)

These recorded examples may help you get a feel for the data.
molecule=Cn1cc2c3c(c[nH]c(=O)c31)CN(c1ccc(F)cc1)c1ccc(NC(=O)Cc3cc(Cl)ccc3Cl)cc1-2 assayed_system="BRD4 (BDI_K57-E168) (Homo sapiens)" quantitative_readout=5.94
molecule=Cn1cc2c3c(c[nH]c(=O)c31)CN(c1ccc(F)cc1)c1ccc(NC(=O)Cn3ccc(-c4ccccc4F)n3)cc1-2 assayed_system="BRD4 (BDI_K57-E168) (Homo sapiens)" quantitative_readout=11.5
molecule=Cc1ncc(CC(=O)Nc2ccc3c(c2)-c2cn(C)c4c(=O)[nH]cc(c24)CN3c2ccc(F)cc2)s1 assayed_system="BRD4 (BDI_K57-E168) (Homo sapiens)" quantitative_readout=1.37
molecule=CCS(=O)(=O)Nc1cnc2c(c1)-c1cn(C)c3c(=O)[nH]cc(c13)CN2c1ccc(Cl)cc1 assayed_system="BRD4 (BDI_K57-E168) (Homo sapiens)" quantitative_readout=0.79

a = Cn1cc(CC(=O)Nc2ccc3c(c2)-c2cn(C)c4c(=O)[nH]cc(c24)CN3c2ccc(F)cc2)cn1
b = CCOC(=O)C1c2c[nH]c(=O)c3c2c(cn3C)-c2cc(CS(C)(=O)=O)ccc2N1c1ccc(F)cc1 (stereo not shown)
c = Cn1cc2c3c(c[nH]c(=O)c31)CN(C(=O)C1CC1)c1ccc(CS(C)(=O)=O)cc1-2
rank_up(items): orders items by reported Ki in ascending numerical order. Give the labels in the order specified.
a, c, b
(a: 1.17 nM, c: 3.53 nM, b: 9.14 nM)

====

- ASSAYED_SYSTEM: BRD4 (BDII_E352-M457) (Homo sapiens)
- Construct: protocol
- ASSAY_COMMENT: TR-FRET bromodomain binding assay, BRD4 second bromodomain
pKi: −log10 of the molar value.
ASSAY_METRIC: pKi

These recorded examples may help you get a feel for the data.
compound=CC(=O)Nc1ccc2c(c1)-c1cn(C)c3c(=O)[nH]cc(c13)CN2C1CCN(C(C)=O)CC1 assayed_system="BRD4 (BDII_E352-M457) (Homo sapiens)" assay_metric=pKi quantitative_readout=6.95
compound=Cn1cc2c3c(c[nH]c(=O)c31)CN(c1ccc(F)cc1)c1ncc(NC(=O)Cc3ccc(Cl)cc3F)cc1-2 assayed_system="BRD4 (BDII_E352-M457) (Homo sapiens)" assay_metric=pKi quantitative_readout=8.33
compound=Cn1cc2c3c(c[nH]c(=O)c31)CN(c1ccc(F)cc1)c1ccc(Cl)cc1-2 assayed_system="BRD4 (BDII_E352-M457) (Homo sapiens)" assay_metric=pKi quantitative_readout=7.47
compound=Cn1cc2c3c(c[nH]c(=O)c31)CN(c1ccc(F)cc1)c1ccc(NC(=O)Cc3cc(F)ccc3Cl)cc1-2 assayed_system="BRD4 (BDII_E352-M457) (Homo sapiens)" assay_metric=pKi quantitative_readout=7.66
compound=Cn1cc(CC(=O)Nc2ccc3c(c2)-c2cn(C)c4c(=O)[nH]cc(c24)CN3c2ccc(F)cc2)cn1 assayed_system="BRD4 (BDII_E352-M457) (Homo sapiens)" assay_metric=pKi quantitative_readout=8.09
compound=Cn1cc2c3c(c[nH]c(=O)c31)CN(c1ccc(F)cc1)c1ccc(C(=O)NCc3cc(F)ccc3Cl)cc1-2 assayed_system="BRD4 (BDII_E352-M457) (Homo sapiens)" assay_metric=pKi quantitative_readout=7.34

I = Cn1cc2c3c(c[nH]c(=O)c31)CN(c1ccc(F)cc1)c1ccc(NC(=O)Cc3cc(F)ccc3Br)cc1-2
II = Cn1cc2c3c(c[nH]c(=O)c31)CN(CC1CC1)c1ccc(S(C)(=O)=O)cc1-2
III = COc1cccc(NC(=O)Nc2ccc3c(c2)-c2cn(C)c4c(=O)[nH]cc(c24)CN3c2ccc(F)cc2)c1
IV = CCS(=O)(=O)Nc1ccc2c(c1)-c1cn(C)c3c(=O)[nH]cc(c13)CN2C1CCN(C(C)=O)CC1
V = Cn1cc2c3c(c[nH]c(=O)c31)CNc1ccc(S(C)(=O)=O)cc1-2
rank_up(items): orders items by reported pKi in ascending numerical order. Give the labels in the order specified.
V, II, III, I, IV
(V: 5.55, II: 6.37, III: 6.89, I: 7.53, IV: 7.77)

====

- ASSAYED_SYSTEM: BRD4 (BDII_E352-M457) (Homo sapiens, UniProt O60885)
- Construct: protocol
- ASSAY_COMMENT: TR-FRET bromodomain binding assay, BRD4 second bromodomain
pKi: −log10 of the molar value.
ASSAY_METRIC: pKi

These recorded examples may help you get a feel for the data.
mol=Cn1cc2c3c(c[nH]c(=O)c31)CN(c1ccc(F)cc1F)c1ccc(CS(C)(=O)=O)cc1-2 quantitative_readout=8.71
mol=Cn1nccc1CNc1ccc2c(c1)-c1cn(C)c3c(=O)[nH]cc(c13)CN2c1ccc(F)cc1 quantitative_readout=8.03
mol=Cc1ccc(C)c(CC(=O)Nc2ccc3c(c2)-c2cn(C)c4c(=O)[nH]cc(c24)CN3c2ccc(F)cc2)c1 quantitative_readout=7.30
mol=Cc1cccnc1CNc1ccc2c(c1)-c1cn(C)c3c(=O)[nH]cc(c13)CN2c1ccc(F)cc1 quantitative_readout=8.19
mol=Cc1ncc(CC(=O)Nc2ccc3c(c2)-c2cn(C)c4c(=O)[nH]cc(c24)CN3c2ccc(F)cc2)s1 quantitative_readout=7.94

1 = Cn1cc2c3c(c[nH]c(=O)c31)CN(c1ccc(F)cc1)c1ncc(NC(=O)Cn3ccc(-c4ccccc4F)n3)cc1-2
2 = COc1ccc(F)cc1CNC(=O)c1ccc2c(c1)-c1cn(C)c3c(=O)[nH]cc(c13)CN2c1ccc(F)cc1
For the pair 1 and 2 , which member has the lower pKi number? // output: label of the selected item
2
(2: 7.24, 1: 7.94)
